Assay: Ex vivo biodistribution in Daudi xenograft-bearing mice
Settings: male, NOD.Cg-Rag1tm1Mom Il2rgtm1Wjl/SzJ (NRG), mouse, fat, iv, total radioactivity, Fat uptake, 2 h p.i., mean
Where a SMILES comes first, the peptide text is derived from it. Side-chain parts run from the residue outwards. [ ]: non-standard residue; d: D form. The star is where a group is joined. DOTA = O=C(O)CN1CCN(CC(=O)O)CCN(CC(=O)*)CCN(CC(=O)O)CC1; 2Nal = N[C@@H](Cc1ccc2ccccc2c1)C(=O)O; dNMeOrn = CN[C@H](CCCN)C(=O)O; 4Amb = NCc1ccc(C(=O)O)cc1
EXPERIMENTAL_ENDPOINT: tissue uptake at 2 h (%ID/g)
Numbers only, in %ID/g.

Entry CN1C(=O)[C@@H](Cc2ccc(O)cc2)NC(=O)CNC(=O)[C@H](Cc2ccc3ccccc3c2)NC(=O)[C@H](CCCNC(=N)N)NC(=O)[C@H]1CCCNC(=O)c1ccc(CNC(=O)CN2CCN(CC(=O)O)CCN(CC(=O)O)CCN(CC(=O)O)CC2)cc1 [[68Ga]Ga-Pentixafor, metal not drawn] (cyclo([dY][dNMeOrn]([4Amb-DOTA])R[2Nal]G)) : reported tissue uptake at 2 h = ?
0.04

###

Assay: Ex vivo biodistribution in Daudi xenograft-bearing mice
Conditions: male, NOD.Cg-Rag1tm1Mom Il2rgtm1Wjl/SzJ (NRG), mouse, pancreas, iv, total radioactivity, Pancreas uptake, 1 h p.i., mean
Where a SMILES comes first, the peptide text is derived from it. Side-chain parts run from the residue outwards. [ ]: non-standard residue; d: D form. The star is where a group is joined. DOTA = O=C(O)CN1CCN(CC(=O)O)CCN(CC(=O)*)CCN(CC(=O)O)CC1; 2Nal = N[C@@H](Cc1ccc2ccccc2c1)C(=O)O; dNMeOrn = CN[C@H](CCCN)C(=O)O; 4Amb = NCc1ccc(C(=O)O)cc1
EXPERIMENTAL_ENDPOINT: tissue uptake at 1 h
Don't forget the unit after the value.

Entry CN1C(=O)[C@@H](Cc2ccc(O)cc2)NC(=O)CNC(=O)[C@H](Cc2ccc3ccccc3c2)NC(=O)[C@H](CCCNC(=N)N)NC(=O)[C@H]1CCCNC(=O)c1ccc(CNC(=O)CN2CCN(CC(=O)O)CCN(CC(=O)O)CCN(CC(=O)O)CC2)cc1 [[68Ga]Ga-Pentixafor, metal not drawn] (cyclo([dY][dNMeOrn]([4Amb-DOTA])R[2Nal]G)) : reported tissue uptake at 1 h = ?
0.21 %ID/g

###

Experiment: Ex vivo biodistribution in Daudi xenograft-bearing mice
Conditions: male, NOD.Cg-Rag1tm1Mom Il2rgtm1Wjl/SzJ (NRG), mouse, tumor (Daudi xenograft), iv, total radioactivity, Tumor uptake (Daudi xenograft), 1 h p.i., mean
Where a SMILES comes first, the peptide text is derived from it. Side-chain parts run from the residue outwards. [ ]: non-standard residue; d: D form. The star is where a group is joined. DOTA = O=C(O)CN1CCN(CC(=O)O)CCN(CC(=O)*)CCN(CC(=O)O)CC1; 2Nal = N[C@@H](Cc1ccc2ccccc2c1)C(=O)O; dNMeOrn = CN[C@H](CCCN)C(=O)O; 4Amb = NCc1ccc(C(=O)O)cc1
EXPERIMENTAL_ENDPOINT: tissue uptake at 1 h

Entry CN1C(=O)[C@@H](Cc2ccc(O)cc2)NC(=O)CNC(=O)[C@H](Cc2ccc3ccccc3c2)NC(=O)[C@H](CCCNC(=N)N)NC(=O)[C@H]1CCCNC(=O)c1ccc(CNC(=O)CN2CCN(CC(=O)O)CCN(CC(=O)O)CCN(CC(=O)O)CC2)cc1 [[68Ga]Ga-Pentixafor, metal not drawn] (cyclo([dY][dNMeOrn]([4Amb-DOTA])R[2Nal]G)) : reported tissue uptake at 1 h = ?
6.31 %ID/g

###

Test: Ex vivo biodistribution in Daudi xenograft-bearing mice
Details: male, NOD.Cg-Rag1tm1Mom Il2rgtm1Wjl/SzJ (NRG), mouse, liver, iv, total radioactivity, Liver uptake, 2 h p.i., mean
Where a SMILES comes first, the peptide text is derived from it. Side-chain parts run from the residue outwards. [ ]: non-standard residue; d: D form. The star is where a group is joined. DOTA = O=C(O)CN1CCN(CC(=O)O)CCN(CC(=O)*)CCN(CC(=O)O)CC1; 2Nal = N[C@@H](Cc1ccc2ccccc2c1)C(=O)O; dNMeOrn = CN[C@H](CCCN)C(=O)O; 4Amb = NCc1ccc(C(=O)O)cc1
EXPERIMENTAL_ENDPOINT: tissue uptake at 2 h (%ID/g)
One number for each entry, in %ID/g.

Entry CN1C(=O)[C@@H](Cc2ccc(O)cc2)NC(=O)CNC(=O)[C@H](Cc2ccc3ccccc3c2)NC(=O)[C@H](CCCNC(=N)N)NC(=O)[C@H]1CCCNC(=O)c1ccc(CNC(=O)CN2CCN(CC(=O)O)CCN(CC(=O)O)CCN(CC(=O)O)CC2)cc1 [[68Ga]Ga-Pentixafor, metal not drawn] (cyclo([dY][dNMeOrn]([4Amb-DOTA])R[2Nal]G)) : reported tissue uptake at 2 h = ?
0.89

###

Assay: Ex vivo biodistribution in Daudi xenograft-bearing mice
Conditions: male, NOD.Cg-Rag1tm1Mom Il2rgtm1Wjl/SzJ (NRG), mouse, testes, iv, total radioactivity, Testes uptake, 1 h p.i., mean
Where a SMILES comes first, the peptide text is derived from it. Side-chain parts run from the residue outwards. [ ]: non-standard residue; d: D form. The star is where a group is joined. DOTA = O=C(O)CN1CCN(CC(=O)O)CCN(CC(=O)*)CCN(CC(=O)O)CC1; 2Nal = N[C@@H](Cc1ccc2ccccc2c1)C(=O)O; dNMeOrn = CN[C@H](CCCN)C(=O)O; 4Amb = NCc1ccc(C(=O)O)cc1
EXPERIMENTAL_ENDPOINT: tissue uptake at 1 h
Don't forget the unit after the value.

Entry CN1C(=O)[C@@H](Cc2ccc(O)cc2)NC(=O)CNC(=O)[C@H](Cc2ccc3ccccc3c2)NC(=O)[C@H](CCCNC(=N)N)NC(=O)[C@H]1CCCNC(=O)c1ccc(CNC(=O)CN2CCN(CC(=O)O)CCN(CC(=O)O)CCN(CC(=O)O)CC2)cc1 [[68Ga]Ga-Pentixafor, metal not drawn] (cyclo([dY][dNMeOrn]([4Amb-DOTA])R[2Nal]G)) : reported tissue uptake at 1 h = ?
0.39 %ID/g

###

Assay: Ex vivo biodistribution in Daudi xenograft-bearing mice
Conditions: male, NOD.Cg-Rag1tm1Mom Il2rgtm1Wjl/SzJ (NRG), mouse, bone, iv, total radioactivity, Bone uptake, 1 h p.i., mean
Where a SMILES comes first, the peptide text is derived from it. Side-chain parts run from the residue outwards. [ ]: non-standard residue; d: D form. The star is where a group is joined. DOTA = O=C(O)CN1CCN(CC(=O)O)CCN(CC(=O)*)CCN(CC(=O)O)CC1; 2Nal = N[C@@H](Cc1ccc2ccccc2c1)C(=O)O; dNMeOrn = CN[C@H](CCCN)C(=O)O; 4Amb = NCc1ccc(C(=O)O)cc1
EXPERIMENTAL_ENDPOINT: tissue uptake at 1 h (%ID/g)
Give bare numbers, in %ID/g.

Entry CN1C(=O)[C@@H](Cc2ccc(O)cc2)NC(=O)CNC(=O)[C@H](Cc2ccc3ccccc3c2)NC(=O)[C@H](CCCNC(=N)N)NC(=O)[C@H]1CCCNC(=O)c1ccc(CNC(=O)CN2CCN(CC(=O)O)CCN(CC(=O)O)CCN(CC(=O)O)CC2)cc1 [[68Ga]Ga-Pentixafor, metal not drawn] (cyclo([dY][dNMeOrn]([4Amb-DOTA])R[2Nal]G)) : reported tissue uptake at 1 h = ?
0.18

###

Experiment: Ex vivo biodistribution in Daudi xenograft-bearing mice
Conditions: male, NOD.Cg-Rag1tm1Mom Il2rgtm1Wjl/SzJ (NRG), mouse, adrenals, iv, total radioactivity, Adrenals uptake, 2 h p.i., mean
Where a SMILES comes first, the peptide text is derived from it. Side-chain parts run from the residue outwards. [ ]: non-standard residue; d: D form. The star is where a group is joined. DOTA = O=C(O)CN1CCN(CC(=O)O)CCN(CC(=O)*)CCN(CC(=O)O)CC1; 2Nal = N[C@@H](Cc1ccc2ccccc2c1)C(=O)O; dNMeOrn = CN[C@H](CCCN)C(=O)O; 4Amb = NCc1ccc(C(=O)O)cc1
EXPERIMENTAL_ENDPOINT: tissue uptake at 2 h (%ID/g)
Give bare numbers, in %ID/g.

Entry CN1C(=O)[C@@H](Cc2ccc(O)cc2)NC(=O)CNC(=O)[C@H](Cc2ccc3ccccc3c2)NC(=O)[C@H](CCCNC(=N)N)NC(=O)[C@H]1CCCNC(=O)c1ccc(CNC(=O)CN2CCN(CC(=O)O)CCN(CC(=O)O)CCN(CC(=O)O)CC2)cc1 [[68Ga]Ga-Pentixafor, metal not drawn] (cyclo([dY][dNMeOrn]([4Amb-DOTA])R[2Nal]G)) : reported tissue uptake at 2 h = ?
0.18
